Protein target, amino acids: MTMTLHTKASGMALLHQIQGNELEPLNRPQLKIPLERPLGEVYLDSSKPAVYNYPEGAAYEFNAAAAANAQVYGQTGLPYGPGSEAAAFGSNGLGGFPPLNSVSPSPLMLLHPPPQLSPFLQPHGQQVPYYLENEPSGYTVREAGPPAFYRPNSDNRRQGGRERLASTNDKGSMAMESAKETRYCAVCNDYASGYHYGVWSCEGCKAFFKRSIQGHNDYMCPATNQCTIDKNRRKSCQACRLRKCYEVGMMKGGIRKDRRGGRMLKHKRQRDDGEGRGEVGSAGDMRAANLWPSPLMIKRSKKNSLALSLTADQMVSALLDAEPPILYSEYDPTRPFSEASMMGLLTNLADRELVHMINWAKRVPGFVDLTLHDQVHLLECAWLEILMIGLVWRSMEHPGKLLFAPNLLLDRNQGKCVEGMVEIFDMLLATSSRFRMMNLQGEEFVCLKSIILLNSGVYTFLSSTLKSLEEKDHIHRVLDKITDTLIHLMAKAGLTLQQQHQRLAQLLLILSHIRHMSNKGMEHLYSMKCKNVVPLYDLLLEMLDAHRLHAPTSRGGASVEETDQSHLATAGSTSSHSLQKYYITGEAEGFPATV
property label: IC50 (µM)

CN(C)CCOc1ccc(C2=C(c3ccc(O)cc3)CCC(C)(CO)C2)cc1 (stereo not drawn) = 6.1

1 = CCC1C(c2ccc(O)cc2)=C(c2ccc(OC)cc2)CC(CO)C1C (stereo not drawn)
2 = COc1ccc(C2=C(c3ccc(OC)cc3)CC3C(CC[C@@H]3O)C2)cc1 (stereo partly drawn)
From the recorded data, which exceeds the other in IC50: 1 or 2 ? Please reply using the label of the selected record.
2
(2: 8.7 µM, 1: 1.85 µM)
